These measurements were taken from patent US20130260436A1.

Target: PcpS (Pseudomonas aeruginosa, UniProt Q9I4H2)
Sequence (Q9I4H2 entry or part of it): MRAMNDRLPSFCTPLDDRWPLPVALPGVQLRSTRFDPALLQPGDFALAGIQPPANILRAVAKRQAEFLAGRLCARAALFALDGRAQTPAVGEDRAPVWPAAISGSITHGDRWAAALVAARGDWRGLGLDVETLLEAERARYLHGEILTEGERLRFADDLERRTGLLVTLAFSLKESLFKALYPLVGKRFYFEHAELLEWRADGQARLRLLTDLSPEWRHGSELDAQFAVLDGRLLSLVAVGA
Assay: BpsA coupled PPTase inhibition assay, PcpS
Assay type: biochemical
Settings: 5 μM CoA, Cheng-Prusoff, competitive inhibition
ASSAY METRIC: Ki
Could you write the number and then its unit?

Give the value of Ki reported for the following: O=Nc1ccc2oc(=O)ccc2c1 [6-NOBP]
4.7 µM

###

Biological target: PP1183 (Pseudomonas putida, UniProt Q88NM4)
Sequence (Q88NM4 entry or part of it): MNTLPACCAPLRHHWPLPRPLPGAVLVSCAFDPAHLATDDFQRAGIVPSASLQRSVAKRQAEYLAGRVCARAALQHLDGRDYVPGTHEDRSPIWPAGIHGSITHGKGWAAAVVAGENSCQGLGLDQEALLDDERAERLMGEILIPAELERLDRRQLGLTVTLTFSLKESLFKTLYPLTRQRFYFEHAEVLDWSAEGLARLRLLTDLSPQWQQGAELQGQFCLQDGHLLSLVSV
Assay: BpsA coupled PPTase inhibition assay, PP1183
Format: biochemical, P. putida KT2440
Conditions: IC50, PP1183; 1.25 μM CoA; 95% CI in parentheses
ASSAY METRIC: IC50
Please format your answer as a value with the unit trailing.

Supply reported IC50 belonging to this molecule: O=Nc1ccc2oc(=O)ccc2c1
3.7 µM
